Listed here are variants together with their documented yeast fitness.
B1: tRNA (parent)
chain: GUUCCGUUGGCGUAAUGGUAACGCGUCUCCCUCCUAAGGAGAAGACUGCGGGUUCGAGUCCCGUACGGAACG

Variants of: B1
Experiment: yeast fitness relative to wild type (ratio to wild type); higher = fitter; tRNA-Arg(CCU), competitive growth, 37 C, YPD
Variants at the floor of the assay were thinned out.
# output: bare number, no unit

Below, 2 variants whose answers are already recorded.
{"VARIANT STRING": "C5G A14U G18A A21U A42G", "yeast fitness": 0.646}
{"VARIANT STRING": "C5G U7G U32C", "yeast fitness": 0.604}

Qu. Given the variant U19A U53A , what is its reported yeast fitness?
Ans. 0.553

Qu. How about G6A G52A G68C ?
Ans. 0.609

Qu. How about C22U A37G A45U ?
Ans. 0.547

Qu. Also C55U A57U U64G , if possible.
Ans. 0.585

Qu. Queued: G10A C55G
Ans. 0.605

Qu. Also, A45C G63A please.
Ans. 0.85
